Value source: ChEMBL document CHEMBL5038598

Quick reference for pIC50 among some compounds
measured_on: Leucine-rich repeat serine/threonine-protein kinase 2 (Homo sapiens, UniProt Q5S007, G2019S)
Sequence (Q5S007 whole entry G2019S): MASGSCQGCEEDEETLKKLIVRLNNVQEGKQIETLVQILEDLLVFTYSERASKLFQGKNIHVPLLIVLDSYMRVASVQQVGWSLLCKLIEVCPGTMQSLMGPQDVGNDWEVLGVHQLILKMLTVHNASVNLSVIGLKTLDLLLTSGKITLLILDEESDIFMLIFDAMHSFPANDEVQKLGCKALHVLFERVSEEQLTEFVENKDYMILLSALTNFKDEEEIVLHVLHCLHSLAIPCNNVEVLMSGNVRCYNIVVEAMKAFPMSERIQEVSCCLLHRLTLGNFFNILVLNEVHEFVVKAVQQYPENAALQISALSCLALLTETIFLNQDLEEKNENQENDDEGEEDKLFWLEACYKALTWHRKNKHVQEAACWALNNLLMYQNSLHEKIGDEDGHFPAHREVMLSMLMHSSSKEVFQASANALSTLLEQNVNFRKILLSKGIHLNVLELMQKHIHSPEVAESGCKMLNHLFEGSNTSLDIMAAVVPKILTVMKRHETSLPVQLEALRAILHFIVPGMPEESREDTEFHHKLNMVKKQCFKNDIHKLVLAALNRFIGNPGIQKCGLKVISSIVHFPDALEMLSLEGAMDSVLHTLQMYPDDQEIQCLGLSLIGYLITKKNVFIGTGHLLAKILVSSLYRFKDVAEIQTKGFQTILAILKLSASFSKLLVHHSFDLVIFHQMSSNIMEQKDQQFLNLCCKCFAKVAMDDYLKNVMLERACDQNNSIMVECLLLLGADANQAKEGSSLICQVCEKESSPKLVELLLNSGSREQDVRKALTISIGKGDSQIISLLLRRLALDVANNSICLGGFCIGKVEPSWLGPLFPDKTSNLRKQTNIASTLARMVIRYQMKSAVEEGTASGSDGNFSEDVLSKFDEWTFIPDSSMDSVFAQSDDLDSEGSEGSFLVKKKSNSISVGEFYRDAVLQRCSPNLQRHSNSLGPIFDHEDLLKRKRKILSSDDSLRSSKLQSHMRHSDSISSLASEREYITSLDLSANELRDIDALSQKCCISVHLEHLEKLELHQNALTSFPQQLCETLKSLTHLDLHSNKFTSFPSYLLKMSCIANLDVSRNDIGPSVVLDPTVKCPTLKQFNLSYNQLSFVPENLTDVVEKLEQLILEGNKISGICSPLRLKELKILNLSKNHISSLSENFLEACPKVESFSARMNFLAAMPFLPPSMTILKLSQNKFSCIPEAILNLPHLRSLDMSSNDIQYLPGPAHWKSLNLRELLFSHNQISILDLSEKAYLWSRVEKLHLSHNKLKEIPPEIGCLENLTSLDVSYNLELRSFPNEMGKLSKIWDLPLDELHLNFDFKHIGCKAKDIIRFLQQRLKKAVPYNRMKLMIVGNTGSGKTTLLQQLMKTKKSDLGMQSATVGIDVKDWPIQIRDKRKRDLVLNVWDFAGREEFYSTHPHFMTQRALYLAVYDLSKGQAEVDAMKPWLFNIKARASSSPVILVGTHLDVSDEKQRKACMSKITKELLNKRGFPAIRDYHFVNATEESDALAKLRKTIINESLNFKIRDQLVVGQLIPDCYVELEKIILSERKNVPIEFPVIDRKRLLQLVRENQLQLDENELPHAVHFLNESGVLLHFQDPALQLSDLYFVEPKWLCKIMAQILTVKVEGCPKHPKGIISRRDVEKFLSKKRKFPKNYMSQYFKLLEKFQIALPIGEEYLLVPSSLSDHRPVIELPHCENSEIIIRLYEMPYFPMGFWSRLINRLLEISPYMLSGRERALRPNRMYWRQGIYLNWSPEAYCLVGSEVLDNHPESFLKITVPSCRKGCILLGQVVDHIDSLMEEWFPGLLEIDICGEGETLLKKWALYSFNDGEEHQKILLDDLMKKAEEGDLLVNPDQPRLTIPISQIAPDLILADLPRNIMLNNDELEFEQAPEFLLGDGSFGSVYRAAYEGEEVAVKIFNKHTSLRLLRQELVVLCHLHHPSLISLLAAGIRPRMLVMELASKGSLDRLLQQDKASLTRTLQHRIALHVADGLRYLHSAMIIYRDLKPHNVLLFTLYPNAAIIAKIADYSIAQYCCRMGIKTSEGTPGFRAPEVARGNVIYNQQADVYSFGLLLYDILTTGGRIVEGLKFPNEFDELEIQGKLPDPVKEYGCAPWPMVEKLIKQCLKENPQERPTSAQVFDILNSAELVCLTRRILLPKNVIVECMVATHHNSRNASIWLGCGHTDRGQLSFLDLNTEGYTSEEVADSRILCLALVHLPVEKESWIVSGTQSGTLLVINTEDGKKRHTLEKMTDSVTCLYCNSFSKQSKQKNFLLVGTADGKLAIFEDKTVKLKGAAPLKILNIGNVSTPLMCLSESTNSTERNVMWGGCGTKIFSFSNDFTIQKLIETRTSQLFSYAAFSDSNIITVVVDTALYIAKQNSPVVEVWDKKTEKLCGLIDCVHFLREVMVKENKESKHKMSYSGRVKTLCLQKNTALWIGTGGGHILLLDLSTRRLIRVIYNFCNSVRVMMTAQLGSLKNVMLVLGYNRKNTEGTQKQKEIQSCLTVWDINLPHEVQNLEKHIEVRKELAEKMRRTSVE
experiment_notes: Inhibition of LRRK2-pSer935 in LRRK2 G2019S mutant expressing human HEK293 cells and measured after 48 hrs by ICW assay
Type: cell-based
pIC50: −log10 of the molar value.
recorded_endpoint: pIC50

{"structure_as_smiles": "Cc1c(Nc2nc(N)c3c(C#N)c(N4CCC[C@H]4C)n(C)c3n2)cnn1C", "experimental_result": 6.59}
{"structure_as_smiles": "C[C@@H]1CCCN1c1c(C#N)c2c(N)nc(Nc3cn(C)nc3C(F)(F)F)nc2n1C", "experimental_result": 6.34}
{"structure_as_smiles": "Cc1nn(C2COC2)cc1Nc1nc(N)c2c(C#N)c(N3CCC[C@H]3C)n(C)c2n1", "experimental_result": 6.85}
